test system: M14 melanoma; assay: NCI tumour cell line growth inhibition, 48 h
Where a SMILES comes first, the peptide text is derived from it. The star is where a group is joined. Cbz = O=C(OCc1ccccc1)*
Please provide measured TGI for the entries that follow.

Please review the following examples before continuing.
Task: Name the recorded TGI for C=CCCC1(C)CCCNC1=S (configuration not stated) .
Result: > 100 µM

Task: Need TGI, item O=c1[nH]c2nc3ccccc3c(=O)n2/c1=C/c1cccs1
Result: > 100 µM

Task: Fill blank: measured TGI of the molecule CN1CCCOC(c2ccc(Cl)cc2)O1 (configuration not stated) is ____.
Result: > 100 µM

Task: Any idea what its TGI is? The molecule is CCOC(=O)CCC(NC(=O)C(Cc1ccccc1)NC(=O)OCc1ccccc1)C(=O)OCC (stereo not drawn) (Cbz-Phe-Glu(OEt)-OEt; configuration not given here)
Result: 29.3 µM

Task: Which measured TGI value corresponds to CC1=NC(C)(COC(=O)C2(C)NC(C)(CO)CO2)COC1=O (configuration not stated) ?
Result: > 100 µM

Batch request: TGI for each of the following molecules.
1. C[n+]1c2ccccc2c(NC(CCCN=C(N)N)C(=O)O)c2ccccc21 (configuration not stated)
2. CCOC(=O)C1=C(Nc2ccc(Br)cc2)OCC1=O
3. Cc1ccc(C)c(N2C(=O)C(=O)C(c3nc4ccccc4o3)/C(=N/N)C2=O)c1 (configuration not stated)
4. Cc1ccc(C(=O)NCc2ccccc2)cc1N=NN(C)C
5. COC(=O)N[C@H](C(=O)NC(OCc1ccccc1)C1COC(C)(C)O1)C(C)O[Si](C)(C)C(C)(C)C (some centres not stated)
6. NCCCOc1cc2ccccc2cc1C(=O)NCCCOc1cc2ccccc2cc1C(=O)Nc1ccc(Cl)cc1O
7. COc1cc(/C=N\O[Si](C)(C)C(C)(C)C)ccc1O[Si](C)(C)C(C)(C)C

Result:
> 100 µM
> 100 µM
> 100 µM
> 100 µM
> 100 µM
2.55 µM
> 100 µM

Record TGI for all entries; do not skip any.
1. COc1cc(/C=C/C(=O)Oc2ccccc2)ccc1C(=O)O/C=C/c1ccccc1
2. N[C@H](Cc1ccc2oc3cc(=O)c4ccccc4c-3nc2c1)C(=O)O
3. COc1cc(-c2nnc3n2NC=C(C(=O)O)S3)cc(OC)c1OC
4. Cc1ccc(C)c(N2C(=O)C(=O)C(c3nc4ccccc4o3)/C(=N\NC(=O)c3ccccc3O)C2=O)c1 (configuration not stated)

Result:
1. > 100 µM
2. 39.9 µM
3. > 100 µM
4. > 100 µM

Need TGI for each of these molecules.
1. NC(=O)CNc1ccc([As]=[As]c2ccc(NCC(N)=O)cc2)cc1 (configuration not stated)
2. O=C(Cn1c2ccc(Br)cc2c2nc3ccccc3nc21)NNC(=S)NC1CCCCC1
3. N#Cc1cc2c(cc1Cl)Sc1nnc(Nc3ccccc3)n1S2(=O)=O
4. COc1ccc(-c2ccc(NNC(=O)c3ccc(F)cc3)nn2)cc1OC
5. C/C=C\C(CC(=O)NCC(=O)c1c[nH]c2ccccc12)CC(=O)OC (configuration not stated)
6. COC(=O)[C@@H](NC(=O)N(Cc1ccccc1)C[C@H](CC(C)C)NC(=O)[C@@H](NC(=O)OC(C)(C)C)C(C)C)C(C)C
7. COc1cc(/C=C2\CCC/C(=C\c3ccc(OCC4CO4)c(OC)c3)C2=O)ccc1OCC1CO1 (configuration not stated)
8. COCCn1cnc2c(Cl)nc(Nc3ccccc3)nc21

Result:
20.6 µM
24.2 µM
4.78 µM
> 100 µM
> 100 µM
> 100 µM
3.99 µM
60.8 µM

Hi there! I need TGI for each item below, if you can.
1. Cc1ccc(N2C(=O)N(c3ccc(C)cc3)C3(SC=NN3C)C2=O)cc1 (configuration not stated)
2. CCCCC1C=Cn2c(=O)oc3c(OC(C)C)c(C)c(O)c1c32 (configuration not stated)
3. C=CC1(CC[C@]2(c3ccc(OC)c(OC)c3)C=[N+]([O-])O[C@H](O[C@@H]3CCCC[C@H]3C(C)(C)c3ccccc3)C2)OCC(C)(C)CO1
4. COc1ccc(-c2cc(Nc3ccnc(N4CCOCC4)n3)on2)cc1
5. CC(=O)OCCOCNC(=S)N/N=C/c1ccc([N+](=O)[O-])s1
6. NCCCNCCCCN1CCOC1=O
7. CN1C(NNC(=O)c2cccnc2)=NS(=O)(=O)c2cc(Cl)ccc21

Result:
> 100 µM
3.15 µM
> 58.1 µM
14.8 µM
> 100 µM
> 100 µM
> 100 µM

Task: Fill blank: measured TGI of the molecule O=C1/C(=C/N2N=C(c3ccc4ccccc4c3)CC2c2ccccc2O)SC(=S)N1c1cccnc1 (configuration not stated) is ____.
Result: > 100 µM

* * *

system: SK-OV-3 ovarian; assay: NCI tumour cell line growth inhibition, 48 h
Provide the reported GI50 of each item.

Solved cases below.
Task: Hi! What's the reported GI50 for COc1ccc(-c2cc(-c3ccc(Nc4ccnc5cc(Cl)ccc45)cc3)nc(N3CCOCC3)n2)cc1 on SK-OV-3 ovarian?
Result: 34.8 µM

Task: Query the reported GI50 for SK-OV-3 ovarian; item: COc1cc(C(=O)O[C@H](C(N)=O)[C@]2(C)CO2)c2cccc(C)c2c1
Result: 1.45 µM

Task: Test system SK-OV-3 ovarian; read-out GI50; what value for COc1cc(OC)c2sc(-c3ccc(-n4cncc4-c4cc(OC)c(OC)c(OC)c4)cc3)nc2c1 ?
Result: > 100 µM

Task: Request: GI50, test system SK-OV-3 ovarian, entry CC(=O)[CH-]C(=O)c1ccccc1.CC(=O)[CH-]C(=O)c1ccccc1.O=S(=O)([O-])c1cc([O-])c2c([O-])cc(S(=O)(=O)[O-])cc2c1.[Na+].[Ti+4]
Result: > 100 µM

Task: Fill in the recorded GI50 for this molecule, with SK-OV-3 ovarian as test system: Cc1ccc2[c](c1)[Sn]([c]1ccccc1)([c]1ccccc1)[c]1cc(C)ccc1N2C
Result: > 100 µM

Task: GET /values?readout=GI50&system=SK-OV-3 ovarian&item= O=C1c2ccccc2C(=O)c2c(NCCN=Cc3ccccc3O)cccc21
Result: 3.54 µM

// for each molecule in input: emit GI50
1. COc1ccc(-c2cc(Nc3ccnc(N4CCOCC4)n3)on2)cc1
2. O=C(Nc1ccc(Cl)cc1)Nc1nccs1
3. Cc1noc2c1-c1ccccc1C(c1ccc(Cl)cc1)=N[C@H]2CC(N)=O

Result:
0.351 µM
5.04 µM
1.54 µM

* * *

Exercise: state measured TGI for each of the compounds provided.
test system: SF-295 CNS; assay: NCI tumour cell line growth inhibition, 48 h

Look over these answered cases.
Task: Any idea what its TGI is? The compound is COC(=O)C(=O)CC(=O)c1cccc(OC)c1
Result: > 100 µM

Task: Give the measured TGI of Cc1cc(NCCCCNc2ccnc3cc(Cl)ccc23)nc(Nc2ccc(C(=O)N3CCCCC3)cc2)n1 .
Result: 3.25 µM

Task: // TGI lookup, key: O=C1/C(=C/N2N=C(c3ccc4ccccc4c3)CC2c2ccccc2O)SC(=S)N1c1cccnc1 (stereo not given)
Result: > 100 µM

Task: May I ask what TGI has been recorded for CCOC(=O)c1sc2nc(SC)nc(Nc3ccc4c(c3)OCCO4)c2c1N ?
Result: 58.1 µM

Let us examine a further case.
Task: Item O=C1C2[C@@H](C(=O)N1c1ccc(Br)cc1)C13C(=CC2([N+](=O)[O-])[C@@H]2C(=O)N(c4ccc(Br)cc4)C(=O)[C@@H]21)c1ccccc1N3c1ccccc1 (stereo not given in full) has what recorded TGI?
Result: > 100 µM

* * *

system: HCT-15 colon; experiment: NCI tumour cell line growth inhibition, 48 h
Measured parameter: TGI

Hey, can you go through the list below and give me TGI for every item?
1. CSc1ccc2c(cc1=O)[C@@H](NC(=O)c1cc(O)c(O)c(O)c1)CCc1cc(O)c(O)c(O)c1-2
2. NC(=O)CNc1ccc([As]=[As]c2ccc(NCC(N)=O)cc2)cc1 (stereo not given)
3. Nc1c(S(=O)(=O)c2ccccc2)c2nc3ccccc3nc2n2c1nc1ccccc12
4. NCCN.O=C([O-])[O-].O=C([O-])[O-].[Co+3].[K+]

Result:
["41.4 µM", "60.7 µM", "> 100 µM", "> 100 µM"]

Task: Given the compound O=C1c2ccccc2C(=O)c2c(NCCN=Cc3ccccc3O)cccc21 , what is its reported TGI?
Result: 16.7 µM

* * *

test system: HCC-2998 colon; test: NCI tumour cell line growth inhibition, 48 h; in the data active = GI50 below about 0.43 µM; inactive = the rest
Classes to choose from: active, inactive

For orientation, consider the following solved cases.
Task: Per the assay record, what outcome was assigned to Nc1c(C(=O)Nc2ccccc2Cl)sc2nc3c(cc12)C(=O)CCC3 ?
Result: inactive

Task: Recorded test call requested for NCCCn1c2c(c3ccccc3c1=O)C(=O)c1ccccc1-2
Result: active

Task: Which result was noted for this compound in the test: O=C(CCN1CCOCC1)Nc1cccc(-n2cc(-c3ccncc3)c(-c3ccc(Cl)c(O)c3)n2)c1
Result: inactive

Next compound, please.
Task: Please let me know the test result on file for COc1ccc(-c2cc(-c3ccc(Nc4ccnc5cc(Cl)ccc45)cc3)nc(N3CCOCC3)n2)cc1 .
Result: inactive

Where do the numbers come from? From PubChem BioAssay (NCI).
